system: HL-60(TB) leukemia; test: NCI-60 one-dose screen, 48 h; details: 10 µM unless noted
Compounds without any hit were thinned out: in the full panel of roughly 83,000, 20% have a hit. Activity calls are given as the source filed them. The calls were made as follows: active = growth percent below 10; inactive = the rest.
Labels: yes (active), no (inactive)

compound	assayed target	class
CSc1nc(N)c2c(n1)N(C)C=NS2(=O)=O	HL-60(TB) leukemia	no
O=C(CN1N=C(c2ccc(F)cc2)CCC1=O)Nc1nccs1	HL-60(TB) leukemia	no
COc1cc(NC(=O)c2cc3ccccc3nc2Nc2ccc(F)cc2)cc(OC)c1OC	HL-60(TB) leukemia	no
O=C(O)c1ccc(NC(=O)c2cccc(Nc3ccnc(C(F)(F)F)c3)c2)cc1	HL-60(TB) leukemia	no
CCN(CC)c1cc(/C=C/c2ccc(OC)c(OC)c2)nc2cc(F)c(F)cc12	HL-60(TB) leukemia	no
COc1ccc(-c2c(-c3cc(OC)c(OC)c(OC)c3)noc2N)cc1	HL-60(TB) leukemia	no
CN(C)CC1=NC2SC=C(c3ccccc3)C2C(=O)N1CC#N (stereo unspecified)	HL-60(TB) leukemia	no
O=c1c2cccc3c(Nc4ccc(Br)cn4)ccc(c32)c2nc3ccccc3n12	HL-60(TB) leukemia	no
CCOC(=O)c1[nH]c2cc(Cl)ccc2c1[C@@H](C(=O)NC(C)(C)C)N(CC)C(=O)CCCCC#Cc1cccc2c1CN(C1CCC(=O)NC1=O)C2=O (stereo partly specified)	HL-60(TB) leukemia	yes
Oc1ccc(N=Cc2ccccc2O)cc1	HL-60(TB) leukemia	no
NCCNc1nc2ccccc2c2c(=O)c3cc(F)ccc3sc12	HL-60(TB) leukemia	no
COc1cccc(C2(C)Nc3ccccc3-c3nc4ccccc4n32)c1 (stereo unspecified)	HL-60(TB) leukemia	no
COc1ccc(CCl)c(C)c1OC	HL-60(TB) leukemia	no
CCc1ccc(CCC(=O)Nc2ncc(Cc3cc(Cl)ccc3Cl)s2)o1	HL-60(TB) leukemia	yes
CC1Cc2c(Cl)ncnc2N(C)c2ccccc21 (stereo unspecified)	HL-60(TB) leukemia	no
N#CC1c2ccccc2C=CN1C(=O)c1ccc(N(CCCl)CCCl)cc1 (stereo unspecified)	HL-60(TB) leukemia	no
C=C(C)[C@@H]1CC[C@]2(C(=O)NCCCN)CC[C@]3(C)[C@H](CC[C@@H]4[C@@]5(C)CC[C@H](O)C(C)(C)[C@@H]5CC[C@]43C)[C@@H]12	HL-60(TB) leukemia	yes
CC(C)(C)c1ccc(S(=O)(=O)O)s1	HL-60(TB) leukemia	no
Clc1nc(N2CCC[N+]3(CC2)CC[N+]2(CCCNCC2)CC3)nc(N2CCC[N+]3(CC2)CC[N+]2(CCCNCC2)CC3)n1 (stereo unspecified)	HL-60(TB) leukemia	no
O=C(O)c1ccccc1C(=O)Nc1ccc(Cl)cc1	HL-60(TB) leukemia	no
CC1=C2[C@@H](CC1)[C@]1(C)O[C@@](C(C)C)(C[C@H]1OC(=O)[C@H](C)O)[C@H]2OC(=O)/C=C/c1ccccc1	HL-60(TB) leukemia	no

###

test system: HL-60(TB) leukemia; experiment: NCI-60 one-dose screen, 48 h; conditions: 10 µM unless noted
Compounds without any hit were thinned out: in the full panel of roughly 83,000, 20% have a hit. Calls of active or inactive are those of the source. The calls were made as follows: active = growth percent below 10; inactive = the rest.
Labels: active, inactive

                                   compound     class
0          CCOC(=O)C(=CNc1ccccc1Cl)C(=O)OCC  inactive
1  N#Cc1c(-c2ccccc2)nc(SCC(=O)N2CCOCC2)[nH]c1=O  inactive
2  O=CC(OC(=O)c1ccccc1)C(OC(=O)c1ccccc1)C(COC(c1ccccc1)(c1ccccc1)c1ccccc1)OC(=O)c1ccccc1 (stereo not given)    active
3        CCOC(=O)CNC(=O)Sc1ccc(C(C)(C)C)cc1  inactive
4  CN1/C(=C/C=C/c2n(Cc3ccc4ccccc4c3)c(Cl)c(Cl)[n+]2Cc2ccc3ccccc3c2)Oc2ccccc21  inactive
5  CC1=CN2C(=NC3=C(CCCC/C3=C\c3ccccc3)C2c2ccccc2)S1 (stereo not given)  inactive
6  Nc1nonc1-c1nc2ccccc2n1CC(=O)Nc1ccc2c(c1)COC2=O  inactive
7      CCOC(=O)c1c2c(n3c1NCC3)-c1ccccc1C2=O  inactive
8  COC(=O)c1c2c(c(C)[n+]([O-])c1C)C(=O)C=C(NCc1ccc(OC)cc1)C2=O    active
9     Cc1cccc(-c2cc(O)c(C(=O)N3CCOCC3)s2)c1  inactive

###

test system: HL-60(TB) leukemia; test: NCI-60 one-dose screen, 48 h; details: 10 µM unless noted
Compounds without any hit were thinned out: in the full panel of roughly 83,000, 20% have a hit. Activity calls are given as the source filed them. Rule for the calls: active = growth percent below 10; inactive = the rest.
Labels: active, inactive

In [3]: df
Out[3]:
                                    compound      assayed_target     class
 0  NS(=O)(=O)c1ccc(Nc2nc(O)c(/C=C3\C=Nc4ccccc43)s2)cc1  HL-60(TB) leukemia  inactive
 1  Cc1sc2c(c1C)c(=O)nc1c(-c3nc(-c4ccccc4)cs3)n[nH]n12  HL-60(TB) leukemia  inactive
 2  CN(CCCNC(=O)CCOCCOCCOCCNC(=O)Cc1ccc2ccc3cccc4ccc1c2c34)CCCNc1cc(-c2ccc3ccccc3c2)nc2ccccc12  HL-60(TB) leukemia    active
 3    COc1cccc(C(=O)NNC(=O)c2cccc3ccccc23)c1  HL-60(TB) leukemia  inactive
 4  N#Cc1ccccc1OCC(=O)Nc1nc2c(s1)COc1ccccc1-2  HL-60(TB) leukemia  inactive
 5  CCCCn1c(C)nc2cc(Nc3nc(N4CCCCC4)nc4nc[nH]c34)ccc21  HL-60(TB) leukemia  inactive
 6  Cc1cc(N/N=C/c2nc(-c3ccccc3)oc2C)c2cc(Cl)ccc2n1  HL-60(TB) leukemia    active
 7  COc1cc(-c2nc3sccn3c2-c2ccnc(NCCNS(=O)(=O)c3ccccc3)n2)ccc1F  HL-60(TB) leukemia  inactive
 8  COc1ccc(/C=C/C(=O)c2ccc(Nc3nc(Nc4ccc(F)cc4)nc(Nc4ccc(Cl)cc4)n3)cc2)cc1  HL-60(TB) leukemia    active
 9  O=C(Nc1cccc(Cn2c(=O)[nH]c3ccc(Oc4ncccn4)cc3c2=O)c1)c1cccc(Cl)c1  HL-60(TB) leukemia  inactive
10  CCCCCCCCCCCCCCCCCC1=NCCN1CCOC1=C(Cl)C(=O)c2ccccc2C1=O  HL-60(TB) leukemia  inactive
11  CCN(CC)C(=O)C1(C)CCCC2(C)c3cc(OC(C)=O)ccc3CCC12 (stereo not given)  HL-60(TB) leukemia  inactive
12   O=C(c1ccc(Cl)cc1Cl)N1c2ccccc2Sc2ccccc21  HL-60(TB) leukemia  inactive
13                   O=C1c2ccccc2CCc2ccccc21  HL-60(TB) leukemia  inactive
14  COc1cc2c3c(n(C)c(=O)c2cc1OC)-c1cc2c(cc1C3=O)OCO2  HL-60(TB) leukemia  inactive
15  C=C(C)[C@@H]1CC[C@]2(C)[C@H](CC=C3[C@@H]4CC(C)(C)CC[C@]4(C(=O)OC)CC[C@]32C)[C@@]1(C)CC/C(N)=N/O  HL-60(TB) leukemia    active
16  N#C/C(=C/C=C/c1cccc(Cl)c1)S(=O)c1ccccc1 (stereo not given)  HL-60(TB) leukemia    active
17  COCCn1cc(-c2nc(-c3cc4cccnc4n3C)cs2)c2cc(OC)ccc21  HL-60(TB) leukemia  inactive
18     Cc1cccc(/C=N/Nc2cc(C)c3cccc(C)c3n2)n1  HL-60(TB) leukemia  inactive
19                       N#CSCc1c(Cl)cccc1Cl  HL-60(TB) leukemia  inactive

###

tested on: K-562 leukemia; test: NCI-60 one-dose screen, 48 h (100 = growth as untreated, 0 = no growth, -100 = all killed); conditions: 10 µM unless noted
This is part of a sample that, as a whole, favours compounds with a hit. Of some 83,000 tested, about 20% had one in any assay.
measured quantity: growth (%)

>>> df
                                   compound  measured_quantity  observed
0  C[CH2][Pb]([CH2]C)([CH2]C)[O]C(=O)c1ccc(N)cc1             growth      38.6
1  Cc1cc(NC(=O)NCCOc2ccc(N3C(N)=NC(N)=NC3(C)C)cc2Cl)ccc1S(=O)(=O)F             growth        13
2  O=C(C(=O)N1CCCC1)c1cn(CCCCCn2cc(C(=O)C(=O)N3CCCC3)c3ccccc32)c2ccccc12             growth      68.8
3  CC1([N+](=O)[O-])COP(=O)(Nc2ccc(F)cc2)OC1 (stereo not given)             growth       103
4  CC(=O)O[C@H]1CCC2(C)C(=CCC3C2CCC2(C)/C(=N/OC(=O)c4ccc(N(CCCl)CCCl)cc4)CCC32)C1 (stereo not given in full)             growth         5
